Tested on: GST-Bcl-2
ASSAY NAME: TR-FRET binding assay, Bcl-2
SETTINGS: TR-FRET Ki values
Procedure: Tb-anti-GST antibody was purchased from Invitrogen (Catalog No. PV4216). […] The samples were then mixed on a shaker for 1 minute and incubated for an additional 3 hours at room temperature. […] Fluorescence was measured on the Envision (Perkin Elmer) using a 340/35 nm excitation filter and 520/525 (F-Bak peptide) and 495/510 nm (Tb-labeled anti-Histidine antibody) emission filters. […]
RESULT TYPE: Binding selectivity ratio (Bcl-XL Ki/Bcl-2 Ki)
Please give the numeric answer without any surrounding text.

Q) Write down measured Binding selectivity ratio (Bcl-XL Ki/Bcl-2 Ki) (GST-Bcl-2) for this compound. "CN(C)CCCNc1ccc(S(=O)(=O)NC(=O)c2ccc(N3CCN(Cc4ccccc4-c4ccc(Cl)cc4)CC3)cc2Oc2ccc3[nH]ccc3c2)cc1S(=O)(=O)C(F)(F)F"
A) 77.1

Attention now shifts to the item below.
Q) Write down measured Binding selectivity ratio (Bcl-XL Ki/Bcl-2 Ki) (GST-Bcl-2) for this compound. "CN1CCN(Nc2ccc(S(=O)(=O)NC(=O)c3ccc(N4CCN(CC5=C(c6ccc(Cl)cc6)CC(C)(C)CC5)CC4)cc3Oc3ccc4[nH]ccc4c3)cc2S(=O)(=O)C(F)(F)F)CC1"
A) 163.7
